# system-tested: HLA DRB1*0404 (human)
# assay-method-text: competition with 125I probe peptide, purified HLA
property-name: log10(IC50) (log10 of the value in µM)

[[record]]
binder = "DWVMAIFGVNPTVAEGF (modifications not checked) [HPV45.E1.228 HTL epitope]"
observed = -1.70

[[record]]
binder = "FHSIAGQYRGQCNTC (modifications not checked) [HPV45.E6.127 HTL epitope]"
observed = 0.52

[[record]]
binder = "NGWFYVEAVIDRQTG (modifications not checked) [HPV31.E1.15 HTL epitope]"
observed = 1.27

[[record]]
binder = "TGRCIACWRRPRTET (modifications not checked) [HPV31.E6.132 HTL epitope]"
observed = 0.06

[[record]]
binder = "WKHMRLECAIYYKAR (modifications not checked) [HPV16.E2.033 HTL epitope]"
observed = 0.84

[[record]]
binder = "WKHIRLECVLMYKAR (modifications not checked) [HPV31.E2.033 HTL epitope]"
observed = -0.51

[[record]]
binder = "QRFHNIRGRWTGRCM (modifications not checked) [HPV16.E6.130 HTL epitope]"
observed = 0.61

